# measured target: T1, P2-AA-1HAA-R
# T1 chain: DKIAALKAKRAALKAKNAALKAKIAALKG
# measurement protocol: two-hybrid library CCmax;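 further: natural log of median RNA to DNA barcode read ratio; higher means stronger binding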
# conditions: mean of both orientations
In this section we review reported interaction score values for a set of binders.
measured quantity: interaction score

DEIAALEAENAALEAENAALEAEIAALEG [P1-AA]; 1.51
DEIAALEAELAALEAENAALEAEIAALEG [P1-AA-1HAA-L]; 1.98
DEIAALEAEDAALEAENAALEAEIAALEG [P1-AA-1HAA-D]; 1.66
DEIAALEAESAALEAENAALEAEIAALEG [P1-AA-1HAA-S]; 2.17
